Would you kindly list EC50 for each of these substances?
- measured target: hGIPR (Homo sapiens)
- Sequence (P48546 22-466): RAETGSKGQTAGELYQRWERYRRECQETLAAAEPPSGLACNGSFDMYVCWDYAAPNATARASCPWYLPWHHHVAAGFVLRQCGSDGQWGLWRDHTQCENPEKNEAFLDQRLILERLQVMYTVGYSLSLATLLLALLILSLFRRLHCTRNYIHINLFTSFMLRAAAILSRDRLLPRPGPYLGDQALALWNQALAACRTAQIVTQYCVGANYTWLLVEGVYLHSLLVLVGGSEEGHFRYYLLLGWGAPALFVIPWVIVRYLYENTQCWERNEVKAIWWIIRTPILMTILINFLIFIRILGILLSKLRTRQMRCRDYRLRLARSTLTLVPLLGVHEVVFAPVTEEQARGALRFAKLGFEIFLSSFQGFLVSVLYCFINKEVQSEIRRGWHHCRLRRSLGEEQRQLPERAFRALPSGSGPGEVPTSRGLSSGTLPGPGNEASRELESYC
- procedure details: Functional cAMP activation in the presence of 0.1% casein (no HSA);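 also: intracellular cAMP rise after 30 min at 37 °C read by HTRF against a standard curve, scaled between buffer alone (0%) and top control ligand concentration (100%), four-parameter fit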
- Type: cell-based
- measurement setup: in the presence of 0.1% casein (no HSA); geometric mean; read-out: Relative cAMP EC50, hGIPR
Starred links: 1 amine or outer side, 2 acyl side, 3 side chain; linkers in the order of their positions; H or OH if unused. Non-standard residues stand in square brackets, D forms with d. Groups on a side chain read outwards from the residue. *: point of attachment. C18 diacid = O=C(O)CCCCCCCCCCCCCCCCC(=O)*; αMePhe(2-F) = C[C@](N)(Cc1ccccc1F)C(=O)O; γGlu = O=C(O)[C@H](CCC(=O)[*:2])N[*:1]; αMe4Pal = C[C@](N)(Cc1ccncc1)C(=O)O; αMeY = C[C@](N)(Cc1ccc(O)cc1)C(=O)O; 4Pal = N[C@@H](Cc1ccncc1)C(=O)O; αMeL = CC(C)C[C@](C)(N)C(=O)O; αMeS = C[C@](N)(CO)C(=O)O; Orn = NCCC[C@H](N)C(=O)O; AEEA = NCCOCCOCC(=O)O; Aib = CC(C)(N)C(=O)O
Field: numeric (nM). Do not append units.

Input: Tell me its EC50 given H-Y[Aib]QGTFTSD[4Pal]SQ[αMeL]LDKK([AEEA-γGlu-C18 diacid])AQ[αMe4Pal]AFIEYLIE[Aib]GPSSGAPPPSGSGE-NH2 [Example 888] as the entry.
Output: 0.168

Input: Tell me its EC50 given H-Y[Aib]QGTFTSD[4Pal]SQ[αMeL]LD[Orn]K([γGlu-γGlu-C18 diacid])AQ[αMe4Pal]AFIEYLIA[Aib]GPSSGAPPPSGSEE-NH2 [Example 1091] as the entry.
Output: 0.0592

Input: Tell me its EC50 given H-Y[Aib]QGT[αMePhe(2-F)]TSD[4Pal][αMeS]I[αMeL]LD[Orn]K([AEEA-γGlu-C18 diacid])AQ[αMe4Pal]EFI[dE][αMeY]LVEGGPSSGAPPPGGE-NH2 [Example 1154] as the entry.
Output: 0.00879

---

- measured target: hGLP-1R (Homo sapiens, UniProt P43220)
- Sequence (P43220 24-463): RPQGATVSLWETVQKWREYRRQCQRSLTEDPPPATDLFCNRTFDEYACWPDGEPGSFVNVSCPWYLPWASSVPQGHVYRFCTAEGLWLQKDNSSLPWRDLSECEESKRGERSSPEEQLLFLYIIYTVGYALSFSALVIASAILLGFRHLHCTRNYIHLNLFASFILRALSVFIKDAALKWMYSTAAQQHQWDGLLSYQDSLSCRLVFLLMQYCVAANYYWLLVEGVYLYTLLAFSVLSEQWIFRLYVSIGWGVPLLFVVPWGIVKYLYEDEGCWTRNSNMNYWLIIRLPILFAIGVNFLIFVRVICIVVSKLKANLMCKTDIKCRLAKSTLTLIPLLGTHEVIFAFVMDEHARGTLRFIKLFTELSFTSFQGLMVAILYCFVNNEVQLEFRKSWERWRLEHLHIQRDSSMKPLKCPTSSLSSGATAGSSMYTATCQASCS
- procedure details: Functional cAMP activation in the presence of 0.1% casein (no HSA);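 as to Relative cAMP EC50, hGLP-1R: intracellular cAMP rise after 30 min at 37 °C read by HTRF, normalized between buffer only (0%) and maximal control ligand (100%), four-parameter variable-slope fit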
- Assay type: cell-based
- measurement setup: in the presence of 0.1% casein (no HSA); geometric mean; read-out: Relative cAMP EC50, hGLP-1R
Starred links: 1 amine or outer side, 2 acyl side, 3 side chain; linkers in the order of their positions; H or OH if unused. Non-standard residues stand in square brackets, D forms with d. Groups on a side chain read outwards from the residue. No end group written: not given here. *: point of attachment. C20 diacid = O=C(O)CCCCCCCCCCCCCCCCCCC(=O)*; C18 diacid = O=C(O)CCCCCCCCCCCCCCCCC(=O)*; αMePhe(2-F) = C[C@](N)(Cc1ccccc1F)C(=O)O; γGlu = O=C(O)[C@H](CCC(=O)[*:2])N[*:1]; NMeY = CN[C@@H](Cc1ccc(O)cc1)C(=O)O; αMe4Pal = C[C@](N)(Cc1ccncc1)C(=O)O; αMeY = C[C@](N)(Cc1ccc(O)cc1)C(=O)O; αMeF = C[C@](N)(Cc1ccccc1)C(=O)O; 4Pal = N[C@@H](Cc1ccncc1)C(=O)O; αMeL = CC(C)C[C@](C)(N)C(=O)O; αMeS = C[C@](N)(CO)C(=O)O; Orn = NCCC[C@H](N)C(=O)O; AEEA = NCCOCCOCC(=O)O; Aib = CC(C)(N)C(=O)O
Would you kindly list pEC50 for each of these substances?
pEC50 (log units): -log10 of the concentration in mol/L.

Input: Tell me its pEC50 given H-Y[Aib]QGTFTSD[4Pal]SR[αMeL]LDKK([AEEA-AEEA-γGlu-C18 diacid])AQ[αMe4Pal]AFIEYLIE[Aib]GPSSGAPPPSGS-NH2 [Example 815] as the entry.
Output: 8.55

Input: Tell me its pEC50 given H-[NMeY][Aib]QGT[αMeF]TSDYSILLDKQAAK([AEEA-AEEA-γGlu-C20 diacid])AFVQWLIAGGPSSGEPPPSEG-NH2 [Example 301] as the entry.
Output: 9.19

Input: Tell me its pEC50 given Y[Aib]QGTFTSD[4Pal]SQ[αMeL]LDKK([AEEA-γGlu-C18 diacid])AQ[αMe4Pal]AFIEYLIE[dA]GPSSGAPPPSGS-NH2 [Example 829] as the entry.
Output: 8.94

Input: Tell me its pEC50 given H-Y[Aib]QGTFTSD[4Pal]S[Orn][αMeL]LDKK([AEEA-γGlu-C18 diacid])AQ[Aib]AFIEYLLAGGPSSGEPPPSGS-NH2 [Example 154] as the entry.
Output: 8.31

Input: Tell me its pEC50 given Y[Aib]QGT[αMePhe(2-F)]TSD[4Pal][αMeS]I[αMeL]LD[Orn]K([AEEA-γGlu-C18 diacid])AQ[αMe4Pal]EFI[dE][αMeY]LIEGGPPS[Aib]EPPPEGE-NH2 [Example 1190] as the entry.
Output: 9.12

Input: Tell me its pEC50 given Y[Aib]QGT[αMeF]TSD[4Pal][αMeS]I[αMeL]LD[Orn]K([AEEA-γGlu-C18 diacid])AQ[αMe4Pal]EFI[dE][αMeY]LIEGGPSSGEPPPSGE-NH2 [Example 1165] as the entry.
Output: 9.20

Input: Tell me its pEC50 given H-Y[Aib]QGTFTSDFS[Orn][αMeL]LDKK([AEEA-γGlu-C18 diacid])AQ[Aib]AFIEYLLAGGPSSGAPPPEGE-NH2 [Example 99] as the entry.
Output: 8.45

Input: Tell me its pEC50 given H-Y[Aib]QGT[αMePhe(2-F)]TSDYSKLLDKIAQK([AEEA-γGlu-C20 diacid])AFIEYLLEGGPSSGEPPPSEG-NH2 [Example 295] as the entry.
Output: 9.08

Input: Tell me its pEC50 given H-Y[Aib]QGTFTSD[4Pal]SQ[αMeL]LD[Orn]K([γGlu-γGlu-C18 diacid])AQ[αMe4Pal]AFI[dE][αMeY]LIEGGPSSGAPPPSGSEE-NH2 [Example 1044] as the entry.
Output: 7.97

Input: Tell me its pEC50 given Y[Aib]QGTFTSD[4Pal]SQ[αMeL]LDKK([AEEA-γGlu-C18 diacid])AQ[αMe4Pal]AFIEYLIE[Aib]GPSSGAPPPSGS-NH2 [Example 810] as the entry.
Output: 8.68

Input: Tell me its pEC50 given H-Y[Aib]QGTFTSDYSK[αMeL]LDKK([AEEA-γGlu-C18 diacid])AQ[Aib]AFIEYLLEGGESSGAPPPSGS-NH2 [Example 358] as the entry.
Output: 8.64

Input: Tell me its pEC50 given H-Y[Aib]QGTFTSD[4Pal]SQ[αMeL]LDKK([γGlu-γGlu-C18 diacid])AQ[αMe4Pal]AFIEYLIE[Aib]GPSSGAPPPSGSGE-NH2 [Example 891] as the entry.
Output: 8.49
